Test system: HDAC activity (Mouse Liver Extract)
procedure.text: Histone Deacetylase (HDAC) Inhibition Assay using Boc-Lys (Ac)-AMC Substrate
Assay type: biochemical
applied.conditions: inhibitor at 10 μM; mouse liver enzyme; in % (unit assumed)
readout.label: HDAC Inhibition 10 μM
When you answer, write just the number.

Reference set, count: 5
CSc1ccc(/C=C(\C(=O)NCCCCCC(=O)NO)c2ccc([N+](=O)[O-])cc2)cc1	92.83
O=C(CCCCCNC(=O)/C(=C\c1ccc(Br)s1)c1ccc(Br)cc1)NO	89.18
CSc1ccc(/C=C(\C(=O)NCCCCCC(=O)NO)c2cccs2)cc1	100
COc1cc(/C=C(\C(=O)NCCCCCC(=O)NO)c2ccc([N+](=O)[O-])cc2)cc(OC)c1	98.28
COc1ccc(/C(=C/c2cccc(Cl)c2)C(=O)NCCCCCC(=O)NO)cc1	90.20

State the recorded HDAC Inhibition 10 μM for this entry: "COc1cc(/C=C(\C(=O)NCCCCCC(=O)Nc2ccccc2O)c2ccc(O)cc2)cc(OC)c1"
35.3

Try "CSc1ccc(/C=C(\C(=O)NCCCCCC(=O)NO)c2ccc(C(F)(F)F)cc2)cc1" next.
97.74

Try "CSc1ccc(/C=C(\C(=O)NCCCCCC(=O)NO)c2ccc(F)cc2)cc1" next.
83

###

System: NCIH 460 cells
procedure.text: cells
applied.conditions: read-out: NCIH460 LC50; NCIH460; MTT, 48 h; tested at 0.01-100 μM; no unit in table
readout.label: CC50

State the recorded CC50 for this entry: "CSc1ccc(/C=C(\C(=O)NCCCCCC(=O)NOCc2ccccc2)c2ccc(F)cc2)cc1"
> 100 µM

###

target.entity: HDAC activity (Mouse Liver Extract)
procedure.text: Histone Deacetylase (HDAC) Inhibition Assay using Boc-Lys (Ac)-AMC Substrate
applied.conditions: mouse liver enzyme
readout.label: IC50 (µM)
Numbers only; they are read as µM.

Reference set, count: 3
Cc1ncsc1/C=C(/C(=O)NCCCCCC(=O)NO)c1cccs1	0.55
COc1ccc(/C(=C/c2cccc(Cl)c2)C(=O)NCCCCCC(=O)NO)cc1	0.44
COc1cc(/C=C(\C(=O)NCCCCCC(=O)NO)c2ccc(F)cc2)cc(OC)c1	0.22

Reported IC50 for HDAC activity (Mouse Liver Extract), given "CSc1ccc(/C=C(\C(=O)NCCCCCC(=O)NO)c2cccs2)cc1" ?
0.26

###

Tested on: HDAC activity (Mouse Liver Extract)
procedure.text: Histone Deacetylase (HDAC) Inhibition Assay using Boc-Lys (Ac)-AMC Substrate
Type: biochemical
applied.conditions: inhibitor at 1 μM; mouse liver enzyme; in % (unit assumed)
readout.label: HDAC Inhibition 1 μM
When you answer, write just the number.

Reference set, count: 10
Cc1ncsc1/C=C(\C(=O)NCCCCCC(=O)NO)c1ccc(C(F)(F)F)cc1	39.38
CSc1ccc(/C=C(\C(=O)NCCCCCC(=O)Nc2nc3cc(C)ccc3s2)c2ccc(F)cc2)cc1	−22.2
CC(=O)N(O)C(=O)CCCCCNC(=O)/C(=C\c1ccc(Cl)o1)c1ccc(F)cc1	69.80
COc1cc(/C=C(\C(=O)NCCCCCC(=O)NO)c2ccc(F)cc2)cc(OC)c1	53.76
COc1ccc(/C(=C/c2cccc(Cl)c2)C(=O)NCCCCCC(=O)NO)cc1	70.82
CON(C)C(=O)CCCCCNC(=O)/C(=C\c1ccc(SC)cc1)c1ccc(F)cc1	2.26
O=C(CCCCCNC(=O)/C(=C\c1ccncc1)c1ccc(F)cc1)NO	21.1
CSc1ccc(/C=C(\C(=O)NCCCCCC(=O)NO)c2cccs2)cc1	89.26
CSc1ccc(/C=C(\C(=O)NCCCCCC(=O)NO)c2ccc([N+](=O)[O-])cc2)cc1	68.69
COc1cc(/C=C(\C(=O)NCCCCCC(=O)Nc2ccccc2O)c2ccc(O)cc2)cc(OC)c1	19.6

State the recorded HDAC Inhibition 1 μM for this entry: "O=C(CCCCCNC(=O)/C(=C\c1ccc(C(F)(F)F)cc1)c1ccc(F)cc1)NO"
49.92

Try "COc1cc(/C=C(\C(=O)NCCCCCC(=O)Nc2ccccc2O)c2ccc(O)cc2)cc(OC)c1OC" next.
15.9

Try "COc1cc(/C=C(\C(=O)NCCCCCC(=O)N(C)OC)c2ccc(O)cc2)cc(OC)c1OC" next.
7.3

Try "CSc1ccc(/C=C(\C(=O)NCCCCCC(=O)Nc2ncc([N+](=O)[O-])s2)c2ccc(F)cc2)cc1" next.
0.7
